The values you see were collected from patent US10800813.

Biological target: T1, Rat plasma Kallikrein (rat, UniProt P14272 391-638, limits assumed)
T1 construct: domain: catalytic domain; also called rPK; rat PK
T1 sequence (P14272 391-638 limits assumed): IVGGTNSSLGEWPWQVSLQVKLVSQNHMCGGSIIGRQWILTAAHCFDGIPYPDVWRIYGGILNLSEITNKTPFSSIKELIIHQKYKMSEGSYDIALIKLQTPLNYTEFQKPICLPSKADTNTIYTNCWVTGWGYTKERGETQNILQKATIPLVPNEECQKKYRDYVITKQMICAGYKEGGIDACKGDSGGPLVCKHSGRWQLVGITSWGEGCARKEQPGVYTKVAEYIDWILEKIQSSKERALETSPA
Assay: enzyme inhibition assay
pIC50: −log10 of the molar value. Numbered stars: 1 amine (or outer) side, 2 acyl side, 3 side chain; on linkers, the order of the positions; unused ones are H or OH. Bridge positions count the residues as written; N and C are the ends. Ends that are not written are not given here. TBMB = c1c(C[*:1])cc(C[*:3])cc1C[*:2]
Catalogue of pIC50 values

{"Binder": "ACRWPARCTHQDLCA (linker 2-8-14 via TBMB; not fully specified (N-terminus, C-terminus)) [06-34-02]", "pIC50": 8.96}
{"Binder": "ACRWPARCMHQDLCA (linker 2-8-14 via TBMB; not fully specified (N-terminus, C-terminus)) [06-34-04]", "pIC50": 9.25}
{"Binder": "ACSWPARCMHQDLCA (linker 2-8-14 via TBMB; not fully specified (N-terminus, C-terminus)) [06-34-17 (01 + 04)]", "pIC50": 9.36}
